- Test system: c-Abl (mouse);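 further: 11-residue human phosphosite peptides and single-mutation variants displayed on the E. coli surface, counted by deep sequencing, each peptide's frequency after selection divided by its frequency in the unselected input library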;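 further: frequency after pTyr selection over input frequency; kinase dosed for 20-30% of maximal phosphorylation in three min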
- MEASUREMENT_PROTOCOL: phosphorylation enrichment, bacterial display (enrichment ratio); higher = better substrate or ligand; peptides without Tyr show the background
Values of phosphorylation enrichment greater than or equal to 0.8 map to condition met; values below map to condition not met.

sequence_string="RDSQIYAVDFE [MRPS34_Y34_L33I_YF]" label="condition met"
sequence_string="EKKKFYDTKIE [CASP5_Y104_YF]" label="condition not met"
sequence_string="KSSDVYVSYDC [SORL1_Y136_Y141C]" label="condition not met"
sequence_string="FISLIYTNFEA [GSTP1_Y109_YF]" label="condition met"
sequence_string="FIGVTYKNEED [PDGFRA_Y993_YF]" label="condition not met"
sequence_string="QMWLKYSQSDL [SMC1A_Y714_R711W]" label="condition met"
sequence_string="NKEAIYSGYIR [SMCHD1_Y283]" label="condition met"
sequence_string="VSSSDYFSFVL [USP24_Y2138_Y2134S]" label="condition met"
sequence_string="GHNDVYILEHV [GRIN2A_Y1423_S1425L]" label="condition not met"
sequence_string="LRIAVYHEILI [CREBBP_Y1450_T1447I]" label="condition met"
sequence_string="FPRAWYRRSIA [KIAA1109_Y4272]" label="condition not met"
sequence_string="RPQDGYRIVQH [PTPRT_Y1329]" label="condition not met"
sequence_string="GREYIYVDPMQ [PDGFRA_Y574_H570R]" label="condition met"
